- Method Summary: Partition coefficient, log P of the compound
- Format: physicochemical
- Study Conditions: octanol/water; read-out: LogP
Reported values of logP for individual entries
# respond with the number and nothing more

Inquiry: // query logP value for entry CCCCCCc1ccc(Oc2ncccn2)c(O)c1
Reply text: 4.46

Inquiry: Item under review: CCCCCCc1ccc(Oc2ccccc2)c(O)c1 . Reported logP?
Reply text: 5.76

Inquiry: What does the record list as logP for CCCCCCc1ccc(Oc2cnccn2)c(O)c1 ?
Reply text: 4.76

Inquiry: // logP lookup, key: CCCCCCc1ccc(Oc2ccc(NC(=O)c3ccno3)cc2)c(O)c1
Reply text: 5.15

Inquiry: Request the reported logP associated with CCCCCCc1ccc(Oc2cccc(NC(=O)c3ccno3)c2)c(O)c1
Reply text: 5.22

Inquiry: Sample CCCCCCc1ccc(Oc2ccccc2N)c(O)c1 — what was its logP?
Reply text: 5.27

Inquiry: # logP lookup, item CCCCCCc1ccc(Oc2ccncc2)c(O)c1
Reply text: 4.93

Inquiry: Look up logP: CCCCCCc1ccc(Oc2ccc(N)cc2)c(O)c1
Reply text: 4.93

Inquiry: So what's the measured logP for this one? CCCCCCc1ccc(Oc2ccccc2NC(=O)c2ccno2)c(O)c1
Reply text: 5.76

Inquiry: Any idea what logP was measured for CCCCCCc1ccc(Oc2ccccn2)c(O)c1 ?
Reply text: 5.06

---
Inquiry: Need logP of CCCCCCc1ccc(Oc2ccccc2NC(C)=O)c(O)c1 , thanks.
Reply text: 5.28

----------
- Experimental Target: UniProt:P9WGR1
- Sequence (P9WGR1 whole entry): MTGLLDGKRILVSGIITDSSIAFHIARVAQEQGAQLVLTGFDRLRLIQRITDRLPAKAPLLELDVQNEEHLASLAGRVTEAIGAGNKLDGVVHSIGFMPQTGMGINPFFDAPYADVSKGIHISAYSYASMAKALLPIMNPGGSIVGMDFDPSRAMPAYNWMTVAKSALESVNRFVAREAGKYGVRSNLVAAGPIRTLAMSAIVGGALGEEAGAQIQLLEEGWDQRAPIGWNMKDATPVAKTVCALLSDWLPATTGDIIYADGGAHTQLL
pIC50: −log10 of the molar value.
Kind request: treat 6 as inclusive, so pIC50 at 6 or higher is t, anything lower is f.

A selection of reference data follows.
Inquiry: Kindly determine if pIC50 recorded for CCCCCCc1ccc(Oc2ccccc2NC(=O)C(=O)O)c(O)c1 is above or exactly 6.
Reply text: f

Inquiry: Check this compound for pIC50 at or above 6: CCCCCCc1ccc(Oc2cccc(NC(C)=O)c2)c(O)c1
Reply text: f

Inquiry: Can CCCCCCc1ccc(Oc2ccccn2)c(O)c1 be said to have pIC50 at or above 6?
Reply text: f

---
Inquiry: Reported pIC50 reaches at least 6 for CCCCCCc1ccc(Oc2cccc(NC(=O)C(=O)O)c2)c(O)c1 ?
Reply text: t

Inquiry: Answer whether pIC50 of CCCCCCc1ccc(Oc2ccc([N+](=O)[O-])cc2)c(O)c1 is greater than or equal to 6.
Reply text: t

Inquiry: Quick check, pIC50 >= 6? CCCCCCc1ccc(Oc2ccccc2NC(C)=O)c(O)c1
Reply text: f
